- experiment: growth inhibition of BT084 medulloblastoma cells, cell-based, ICGC_MB145, cisplatin and BGB IC40 combos (AID 1671461);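 further: cells exposed to drugs for 96 hours; 0% = vehicle DMSO and 100% = high DMSO full killing control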
- run-parameters: drug combinations, single agent, at 5 µM, stronger effect = higher value
Please mark 1 if the recorded inhibition is equal to or greater than 10%, and 0 if it falls below.

Problem: Does the reported inhibition for O=C1CCC[C@@H]2[C@H]3CCCN4CCC[C@@H](CN12)[C@@H]34 fall at or above the 10% mark?
Result: 1

Problem: Does the reported inhibition for O=c1[nH]c(=O)n(C2OC(CO)C(O)C2O)cc1F (stereo not drawn) fall at or above the 10% mark?
Result: 1

Problem: Does the reported inhibition for Cc1c2ccncc2c(C)c2c1[nH]c1ccccc12 fall at or above the 10% mark?
Result: 1

Problem: Does the reported inhibition for O=P(O)(NCCCl)NCCCl fall at or above the 10% mark?
Result: 0

Problem: Does the reported inhibition for CN(C)NC(=O)CCC(=O)O fall at or above the 10% mark?
Result: 0

Problem: Does the reported inhibition for Cn1c(CCCC(=O)O)nc2cc(N(CCCl)CCCl)ccc21 fall at or above the 10% mark?
Result: 0

Problem: Does the reported inhibition for CC1(C)C(C(=O)Nc2ccc(S(=O)(=O)c3ccc(NC(=O)C4C(C)(C)C4(C)C)cc3)cc2)C1(C)C fall at or above the 10% mark?
Result: 0

Problem: Does the reported inhibition for CCC1(c2ccccc2)C(=O)NC(=O)NC1=O fall at or above the 10% mark?
Result: 0

====

- experiment: Cy5 fluorescence interference with SSB-bound oligo, artefact control for HCV NS3 helicase inhibitor project, biochemical, NIH Clinical Collection, E. coli SSB (AID 743268)
Please mark t if the recorded fluorescence ratio is equal to or greater than 1, and f if it falls below.

Problem: Does the reported fluorescence ratio for CC(C)N(CCC(C(N)=O)(c1ccccc1)c1ccccn1)C(C)C (stereo unspecified) fall at or above the 1 mark?
Result: f

Problem: Does the reported fluorescence ratio for C=C(C)CN1CC[C@]23c4c5ccc(O)c4O[C@H]2c2[nH]c4ccccc4c2C[C@@]3(O)C1C5 fall at or above the 1 mark?
Result: f

Problem: Does the reported fluorescence ratio for O=C1CN=C(c2ccccc2)c2cc([N+](=O)[O-])ccc2N1 fall at or above the 1 mark?
Result: t

Problem: Does the reported fluorescence ratio for CCN(C(C)=O)c1cccc(-c2ccnc3c(C#N)cnn23)c1 fall at or above the 1 mark?
Result: f

Problem: Does the reported fluorescence ratio for COc1ccc(C(CN(C)C)C2(O)CCCCC2)cc1 (stereo unspecified) fall at or above the 1 mark?
Result: t

Problem: Does the reported fluorescence ratio for O=P1(N(CCCl)CCCl)NCCCO1 (stereo unspecified) fall at or above the 1 mark?
Result: t

Problem: Does the reported fluorescence ratio for CCC1(c2ccc(N)cc2)CCC(=O)NC1=O (stereo unspecified) fall at or above the 1 mark?
Result: t

Problem: Does the reported fluorescence ratio for Oc1cc2c(cc1O)[C@H]1c3ccccc3CN[C@@H]1CC2 fall at or above the 1 mark?
Result: f

Problem: Does the reported fluorescence ratio for CN1C(=O)CN=C(c2ccccc2)c2cc([N+](=O)[O-])ccc21 fall at or above the 1 mark?
Result: t

Problem: Does the reported fluorescence ratio for C[C@]12Cc3cn[nH]c3C[C@@H]1CC[C@@H]1[C@@H]2CC[C@@]2(C)[C@H]1CC[C@]2(C)O fall at or above the 1 mark?
Result: f

Problem: Does the reported fluorescence ratio for COC(=O)N1CCN(C(=O)Cc2ccc(Cl)c(Cl)c2)C(CN2CCCC2)C1 (stereo unspecified) fall at or above the 1 mark?
Result: t

Problem: Does the reported fluorescence ratio for COc1ccc2[nH]cc(C3=CCNCC3)c2c1 fall at or above the 1 mark?
Result: f

Problem: Does the reported fluorescence ratio for CN1C(=O)CN=C(c2ccccc2)c2cc(Cl)ccc21 fall at or above the 1 mark?
Result: t

====

I'd be grateful if you could share measured nuclear beta-catenin stimulation for these entries.
- experiment: stimulators of nuclear beta-catenin in C2C12, primary screen, imaging, WNT3A-conditioned medium, mouse C2C12, NPC library (AID 1117326)
- run-parameters: at 10 µM, stronger effect = higher value
Report the figure in % without appending any unit label.

Problem: Kindly indicate its recorded nuclear beta-catenin stimulation. Item: O=c1oc2ccccc2c(O)c1Cc1c(O)c2ccccc2oc1=O
Result: -0.1

Problem: Kindly indicate its recorded nuclear beta-catenin stimulation. Item: CCN(CC)CCOC(=O)C(O)(c1ccccc1)c1ccccc1
Result: -0.3

Problem: Kindly indicate its recorded nuclear beta-catenin stimulation. Item: CCOC(=O)c1cncn1C(C)c1ccccc1 (centres undefined)
Result: 1.8

Problem: Kindly indicate its recorded nuclear beta-catenin stimulation. Item: NC1=NC(=O)C(c2ccccc2)O1 (centres undefined)
Result: 1

====

- experiment: liver-stage malaria parasite growth inhibition, primary screen, cell-based, HepG2, luciferase luminescence, HepG2 viability (AID 624349);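 further: 100% = mean of DMSO negative control wells on the same plate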
- run-parameters: P. berghei liver stage in HepG2, luciferase luminescence, concentration not given here; stronger effect = lower value
Class boundaries, taken from values of parasite load remaining, are as follows: 1 (below 60%), 2 (60% to below 80%), 3 (80% or more)

Problem: Could you tell me which band O=C1C=C2C=C[C@@H]3C[C@@]2(O1)[C@H]1CCCCN31 belongs to?
Result: 2

Problem: Could you tell me which band CCN(CC)C(=O)N[C@H]1C=C2c3cccc4[nH]cc(c34)C[C@H]2N(C)C1 belongs to?
Result: 3

Problem: Could you tell me which band COC1=C[C@@H]2C3=C([C@@H]2C1=O)[C@@H](NC(C)=O)CCc1cc(OC)c(OC)c(OC)c13 belongs to?
Result: 2

Problem: Could you tell me which band Oc1ccc2c3c1O[C@H]1c4[nH]c5ccccc5c4C[C@@]4(O)C(C2)N(CC2CC2)CC[C@]314 belongs to?
Result: 1

Problem: Could you tell me which band C[C@]12CC[C@H](O)CC1=CC[C@@H]1[C@@H]2CC[C@@]2(C)[C@H]1CC[C@]2(C)O belongs to?
Result: 2

Problem: Could you tell me which band N[C@@H]1C[C@H]1c1ccccc1 belongs to?
Result: 3

Problem: Could you tell me which band COP(=S)(OC)Oc1cc(Cl)c(Cl)cc1Cl belongs to?
Result: 1

Problem: Could you tell me which band COc1ccc(CCN)cc1OC belongs to?
Result: 2

====

- experiment: HTB85 osteosarcoma cell growth inhibition, synergistic combos for chromothripsis tumors, BGB or cisplatin IC20 combos (AID 1671453);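 further: cells exposed for 96 hours before readout; 0% = vehicle DMSO and 100% = high DMSO killing control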
- run-parameters: HTB85 osteosarcoma cells, drug combinations, single agent, at 5 µM, stronger effect = higher value
Please mark YES if the recorded inhibition is equal to or greater than 50%, and NO if it falls below.

Problem: Does the reported inhibition for CN(C)NC(=O)CCC(=O)O fall at or above the 50% mark?
Result: NO

Problem: Does the reported inhibition for Cc1c2ccncc2c(C)c2c1[nH]c1ccccc12 fall at or above the 50% mark?
Result: YES

Problem: Does the reported inhibition for O=C1CCC[C@@H]2[C@H]3CCCN4CCC[C@@H](CN12)[C@@H]34 fall at or above the 50% mark?
Result: NO

Problem: Does the reported inhibition for CCC1(O)C(=O)OCc2c1cc1n(c2=O)Cc2cc3ccccc3nc2-1 (stereo unspecified) fall at or above the 50% mark?
Result: YES

Problem: Does the reported inhibition for O=c1[nH]c(=O)n(C2OC(CO)C(O)C2O)cc1F (stereo unspecified) fall at or above the 50% mark?
Result: YES

Problem: Does the reported inhibition for CCC1(c2ccccc2)C(=O)NC(=O)NC1=O fall at or above the 50% mark?
Result: NO

Problem: Does the reported inhibition for CC1(C)C(C(=O)Nc2ccc(S(=O)(=O)c3ccc(NC(=O)C4C(C)(C)C4(C)C)cc3)cc2)C1(C)C fall at or above the 50% mark?
Result: NO

Problem: Does the reported inhibition for NC(Cc1ccc(N(CCCl)CCCl)cc1)C(=O)O (stereo unspecified) fall at or above the 50% mark?
Result: YES

Problem: Does the reported inhibition for O=C(O)CCCc1ccc(N(CCCl)CCCl)cc1 fall at or above the 50% mark?
Result: NO

Problem: Does the reported inhibition for Cn1c(CCCC(=O)O)nc2cc(N(CCCl)CCCl)ccc21 fall at or above the 50% mark?
Result: NO

Problem: Does the reported inhibition for O=P(O)(NCCCl)NCCCl fall at or above the 50% mark?
Result: NO

====

- experiment: HCT116 colon cancer cell growth inhibition, primary screen, CellTiter-Glo luminescence, NPC library (AID 1117342)
- run-parameters: at 20 µM (top of the series)
The source made the active and inactive calls.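 Rule for the calls: active = compounds that lower survival of HCT116 colon cancer cells in the luminescence readout, no numeric limit stated; inactive = the rest.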
Use one of these outcomes when replying: active, inactive

Problem: Which outcome was entered for the compound CCC(COC(=O)c1cc(OC)c(OC)c(OC)c1)(c1ccccc1)N(C)C (stereo not drawn) in this test?
Result: active

Problem: Which outcome was entered for the compound C=CCOC(Cn1ccnc1)c1ccc(Cl)cc1Cl (stereo not drawn) in this test?
Result: active

Problem: Which outcome was entered for the compound CN(C)[C@@H]1C(=O)C(C(N)=O)=C(O)[C@@]2(O)C(=O)C3=C(O)c4c(O)cccc4[C@@](C)(O)[C@H]3C[C@@H]12 in this test?
Result: inactive

Problem: Which outcome was entered for the compound Nc1ccc(Cl)cc1C(=O)c1ccccc1F in this test?
Result: inactive

Problem: Which outcome was entered for the compound C[C@]12CCC(=O)C=C1C=C[C@@H]1[C@H]2CC[C@@]2(C)[C@@H]1CC[C@@]2(O)CCC(=O)O in this test?
Result: inactive

Problem: Which outcome was entered for the compound NCCS[As](SCCN)c1ccc(Nc2nc(N)nc(N)n2)cc1 in this test?
Result: inactive

Problem: Which outcome was entered for the compound Nc1ccc([As](=O)(O)O)cc1 in this test?
Result: inactive

Problem: Which outcome was entered for the compound NCC(O)c1ccc(O)cc1 (stereo not drawn) in this test?
Result: inactive

Problem: Which outcome was entered for the compound CN1CCC(O)(c2ccc(F)cc2)C(C(=O)c2ccc(F)cc2)C1 (stereo not drawn) in this test?
Result: inactive

Problem: Which outcome was entered for the compound c1ccc2c(c1)sc1ccccc12 in this test?
Result: inactive

Problem: Which outcome was entered for the compound CCCC[N+]1(C)[C@@H]2CC(OC(=O)[C@H](CO)c3ccccc3)C[C@H]1[C@@H]1O[C@@H]12 (stereo partly drawn) in this test?
Result: inactive

Problem: Which outcome was entered for the compound CCCCCCCCC(=O)NCc1ccc(O)c(OC)c1 in this test?
Result: inactive

Problem: Which outcome was entered for the compound CN1C[C@@H](NS(=O)(=O)N(C)C)C[C@@H]2c3cccc4c3c(cn4C)C[C@H]21 in this test?
Result: inactive
